// data source = PubChem BioAssay AID1918942

# System: 743489-274-T-PDC complex spheroid viability;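 further: spheroids exposed to compounds for 7 days before readout; 100% = DMSO vehicle control wells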
# ASSAY DETAILS: Anticancer human tumor 743489-274-T-PDC patient-derived renal cell carcinoma cell line growth inhibition
# STUDY CONDITIONS: second compound 0.316 µM; first compound 0.316 µM; stronger effect = lower value
# Excerpt: Multicellular complex tumor spheroid response to LSD1 Inhibitor Iadademstat in combination with a variety of drugs and investigational agents in selected tumor cell lines The current study was undertaken to assess response to LSD1 inhibitors in combination with standard-of-care drugs and investigational agents in solid tumor complex spheroid models as well as in the K-562 leukemia. […] Compounds. […] If the clinical Cmax for an agent had not been determined, the highest concentration tested was 10 microM. […]
RESULT TYPE: viability, T/C (%)
Answers are plain numbers, in %.

Known viability, T/C results, listed for orientation:
{"COMPOUND": "CC1(C)CCC(CN2CCN(c3ccc(C(=O)NS(=O)(=O)c4ccc(NCC5CCOCC5)c([N+](=O)[O-])c4)c(Oc4cnc5[nH]ccc5c4)c3)CC2)=C(c2ccc(Cl)cc2)C1 + NC1CCC(NC2CC2c2ccccc2)CC1", "TARGET OR TEST SYSTEM": "743489-274-T-PDC complex spheroid viability", "viability, T/C / %": 116}
{"COMPOUND": "COc1ccc([C@@H](O)c2cc(-c3ncnc4cc(N5CCOCC5)ccc34)c(F)cc2Cl)nn1 + NC1CCC(NC2CC2c2ccccc2)CC1", "TARGET OR TEST SYSTEM": "743489-274-T-PDC complex spheroid viability", "viability, T/C / %": 99}

Could you now look at the following compound, please?
Return value of viability, T/C for input CC1COCCN1c1cc(C2(S(C)(=N)=O)CC2)nc(-c2ccnc3[nH]ccc23)n1 (stereo not drawn) + NC1CCC(NC2CC2c2ccccc2)CC1 , no commentary.
107
